All values here come from the supplement of paper PMC10567573.

B1: NP_009172.2 (parent)
chain: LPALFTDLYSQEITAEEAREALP

Variants of: B1
Assay: protein stability index of a GFP-peptide fusion (GPS, HEK-293T) (PSI 1-6); higher = more stable;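 further: lentivirally expressed fusion library, cells FACS-sorted into six equal-sized GFP/DsRed ratio bins, PSI computed from sequencing read fractions per bin weighted by bin number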
Conditions: c terminus: native
Would you kindly list protein stability index for each of these variants?
Lab note: record just the number, no unit beside it.

# return recorded protein stability index for entry LPALFTDLYSQEVTAEEAREALP [I13V] 2.46

Given LPALFTDLYSQEITAEEAREAVP [L22V] , respond with its protein stability index. 3.17

Indicate the recorded protein stability index value for this variant: LPAIFTDLYSQEITAEEAREALP [L4I] 4.64

Given the variant LPALFTDLYSQEITAEKAREALP [E17K] , write its reported protein stability index. 2.18

Item LPALFTDLYSQTITAEEAREALP [E12T] : provide protein stability index 3.03

Look up and report measured protein stability index for this entry: LPALFTDLYSVEITAEEAREALP [Q11V] 2.79

Report measured protein stability index; entry is LPALFDDLYSQEITAEEAREALP [T6D] 5.37

Consider the variant LPALFTDLYSQEITKEEAREALP [A15K] and give its recorded protein stability index. 2.56

Supply measured protein stability index of LPALGTDLYSQEITAEEAREALP [F5G] in your reply. 5.28

Look up and state reported protein stability index for LPALFTDLYSQEITAEEAREAIP [L22I] 2.37

Return reported protein stability index. Input variant: LPALFADLYSQEITAEEAREALP [T6A] 2.34

Read off the recorded protein stability index for LPALFTDLYSQEITADEAREALP [E16D] 2.75

Provide only the value of recorded protein stability index for LPALFTDLYSQEITAEEAREAWP [L22W] 2.67

Specify measured protein stability index for LPALFTDLYSQEITAEEAAEALP [R19A] . 2.75

In one line, give reported protein stability index of the entry LPALFTDLYSQEITAEEAREAHP [L22H] . 3.44

Check the records and state protein stability index for LPALFTDLYSQEITAEEAREALV [P23V] 4.18

Answer with the recorded protein stability index of IPALFTDLYSQEITAEEAREALP [L1I] only. 2.63

Tell me measured protein stability index for LPALFTDLYSQEITAEEAREALY [P23Y] please. 3.49

Tell me its protein stability index given LPALFTDLYSQEITAEEAREYLP [A21Y] as the entry. 2.3

Provide one value: measured protein stability index of LPAWFTDLYSQEITAEEAREALP [L4W] 3.98

Given HPALFTDLYSQEITAEEAREALP [L1H] , respond with its protein stability index. 2.6

Answer with the recorded protein stability index for the variant listed here: LPALFTDLYSKEITAEEAREALP [Q11K] 2.4

Supply measured protein stability index of LPALFTDLYSQEIWAEEAREALP [T14W] in your reply. 2.62

Please give the documented protein stability index of LPALFTDLYSQEITAQEAREALP [E16Q] 2.64

Give the reported protein stability index for this variant. LPALFTDLISQEITAEEAREALP [Y9I] 1.88

Supply reported protein stability index belonging to this variant: LPALFTDSYSQEITAEEAREALP [L8S] 4.05

Please report the measured protein stability index for LPALFTDLYSQEITAGEAREALP [E16G] 2.9

Give reported protein stability index value for LPALFTDLYSQEITGEEAREALP [A15G] 2.83

Tell me measured protein stability index for LPALFTCLYSQEITAEEAREALP [D7C] please. 3.44

Return protein stability index for the following variant: LCALFTDLYSQEITAEEAREALP [P2C] 2.64

Specify reported protein stability index for the variant shown: LPALFTDLYSQFITAEEAREALP [E12F] 3.01

Respond only with protein stability index recorded for LPALFTDPYSQEITAEEAREALP [L8P] 5.43

// fetch protein stability index given entry LPALFTDLYSQEITAFEAREALP [E16F] 2.89

# return recorded protein stability index for input LPALFTKLYSQEITAEEAREALP [D7K] 3.33

Determine from records and report protein stability index for LPALFTDLYSQEITAEEARFALP [E20F] 2.43

Provide measured protein stability index value, entry: LPAVFTDLYSQEITAEEAREALP [L4V] 4.59

Read off the recorded protein stability index for LPALFTDLYSQEITAEEAREADP [L22D] 4.62

Complete the entry with protein stability index for LPALWTDLYSQEITAEEAREALP [F5W] 2.25

Look up protein stability index of LPALFTDYYSQEITAEEAREALP [L8Y] and report it. 2.53

Report protein stability index, nothing else, for this variant: LPDLFTDLYSQEITAEEAREALP [A3D] 4.1

Tell me measured protein stability index for LPALFTDLYSQEITAREAREALP [E16R] please. 2.68

Quick one: give measured protein stability index for LKALFTDLYSQEITAEEAREALP [P2K] 2.5

Specify reported protein stability index for the variant shown: LPALMTDLYSQEITAEEAREALP [F5M] 5.24

Specify measured protein stability index for LPALFTDLYSQEITAEEAREQLP [A21Q] . 2.46

Identify the reported protein stability index for the following entry. LPALKTDLYSQEITAEEAREALP [F5K] 5.25

Note down protein stability index recorded for LPALFTDLYSQEITAEEKREALP [A18K] 2.26
